Target: chymotrypsin (Bos taurus, UniProt P00766)
Construct: purchased SIGMA
Assay: Resistance to peptidase: decomposition by chymotrypsin (HPLC)
Type: in vitro ADME
Conditions: isolated chymotrypsin (SIGMA), pH 8; 4 U/ml enzyme in 0.1M Tris-HCl (pH8.0), 37° C., peptide 0.2 mg/ml; time at which half of the peptide was decomposed; read-out: half period by chymotrypsin (t1/2)
Method: Resistance to a peptidase of a peptide of the present invention was investigated using a carboxy peptidase and chymotrypsin. Resistance to a peptidase was measured as described below. Chymotrypsin purchased from SIGMA was treated with 0.1M Tris-HCl (pH8.0) to prepare an enzyme solution of 4 U/ml, which was then kept warm at 37° C. in a water bath. […] Samples were analyzed by HPLC, and decomposition of a peptide by chymotrypsin was measured. […]
Listed next: entries and their corresponding half-life at 0.2 mg/ml.
Just the number please, in s, no unit attached.

>>> measured_value("CC(C)C[C@@H]1NC(=O)[C@H](Cc2ccc(O)cc2)NC(=O)[C@H](CCC(N)=O)NC(=O)[C@H](CO)NC(=O)[C@H](Cc2c[nH]c3ccccc23)NC(=O)[C@@H](NC(=O)[C@@H](N)Cc2ccc(O)cc2)CCCCNCCCCN(CC(=O)N[C@@H](Cc2ccc(O)cc2)C(=O)O)C1=O [Bdev8]")
75.6

Now let's try a different one.
Record request: half-life at 0.2 mg/ml value, item CC(C)C[C@@H]1NC(=O)[C@H](Cc2ccc(O)cc2)NC(=O)[C@H](CCC(N)=O)NC(=O)[C@H](CO)NC(=O)[C@H](Cc2c[nH]c3ccccc23)NC(=O)[C@@H](NC(=O)[C@@H](N)Cc2ccc(O)cc2)CSSC[C@@H](C(=O)N[C@@H](Cc2ccc(O)cc2)C(=O)O)NC1=O [STD, reference compound]
24
